# assay-target: human recombinant 5-HT3 receptor (Homo sapiens, UniProt P46098)
# Construct: expressed in transfected cells; host or cells: HEK293 (membrane preparation)
# Sequence (P46098 24-478): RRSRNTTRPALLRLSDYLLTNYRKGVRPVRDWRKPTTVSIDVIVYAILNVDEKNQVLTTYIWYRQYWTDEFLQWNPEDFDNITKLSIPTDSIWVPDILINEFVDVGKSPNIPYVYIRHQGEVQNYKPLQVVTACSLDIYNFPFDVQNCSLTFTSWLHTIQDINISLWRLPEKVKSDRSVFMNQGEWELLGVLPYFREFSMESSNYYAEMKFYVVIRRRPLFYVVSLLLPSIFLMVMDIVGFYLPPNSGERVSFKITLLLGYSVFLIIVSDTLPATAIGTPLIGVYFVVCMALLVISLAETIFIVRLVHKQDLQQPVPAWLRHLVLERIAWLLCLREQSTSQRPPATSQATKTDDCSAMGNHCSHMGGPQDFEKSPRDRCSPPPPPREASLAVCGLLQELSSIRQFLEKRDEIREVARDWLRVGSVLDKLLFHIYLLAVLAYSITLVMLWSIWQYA
# method-notes: 5-HT3 receptor affinity assay (3H-BRL 43694 radioligand binding)
# applied-conditions: read-out: inhibition (%) at 1 μM
Structures can show the parent of a compound that is named as a salt.
I'd appreciate it if you could supply inhibition at 1 µM values for the items below.
State just the number; it will be interpreted in %.

# return recorded inhibition at 1 µM for input Fc1c(N2CC3CNCC3C2)ccc2ccccc12.O=C(O)/C=C\C(=O)O (centres unmarked) [Example 31, maleate]
101

# return recorded inhibition at 1 µM for input O=C(O)/C=C\C(=O)O.c1cc(N2CCC3CNCC3CC2)c2ccsc2c1 (centres unmarked) [Example 38, maleate]
103

# return recorded inhibition at 1 µM for input c1ccc2cc(N3CC4CNCC4C3)ccc2c1 (centres unmarked)
106

# return recorded inhibition at 1 µM for input O=C(O)/C=C\C(=O)O.c1ccc2cc(N3CCC4CNCC4CC3)ccc2c1 (centres unmarked) [Example 39, maleate]
92

# return recorded inhibition at 1 µM for input CN1[C@@H]2CC[C@H]1C[C@@H](OC(=O)c1cc(Cl)cc(Cl)c1)C2 [MDL72222, reference compound]
93

# return recorded inhibition at 1 µM for input O=C(O)/C=C\C(=O)O.c1cc2cc(N3CC4CNCC4C3)ccc2s1 (centres unmarked) [Example 14, maleate]
99

# return recorded inhibition at 1 µM for input CN1CC2CN(c3cccc(Cl)c3Cl)CC2C1.O=C(O)C(=O)O (centres unmarked) [Example 28, oxalate]
82

# return recorded inhibition at 1 µM for input O=C(O)/C=C\C(=O)O.c1cc(N2CCC3CNCC3CC2)c2sccc2c1 (centres unmarked) [Example 36, maleate]
89

# return recorded inhibition at 1 µM for input Clc1cccc(N2CC3CNCC3C2)c1Cl (centres unmarked) [Example 27, maleate]
104

# return recorded inhibition at 1 µM for input c1cc2cc(N3CCC4CNCC4CC3)ccc2s1 (centres unmarked) [Example 7, maleate]
101

# return recorded inhibition at 1 µM for input O=C(O)/C=C\C(=O)O.c1cc(N2CC3CNCC3C2)c2sccc2c1 (centres unmarked) [Example 10, maleate]
86

# return recorded inhibition at 1 µM for input Br.CN1CC2CN(c3cccc4sccc34)CC2C1 (centres unmarked) [Example 13, hydrobromide]
70

# return recorded inhibition at 1 µM for input O=C(O)/C=C\C(=O)O.c1cc(N2CC3CCNCCC3C2)c2ccsc2c1 (centres unmarked) [Example 41, maleate]
86

# return recorded inhibition at 1 µM for input CN1CC2CN(c3ccc4ccccc4c3F)CC2C1.O=C(O)/C=C\C(=O)O (centres unmarked) [Example 32, maleate]
103

# return recorded inhibition at 1 µM for input O=C(O)/C=C\C(=O)O.c1cc(N2CC3CNCC3C2)c2ccsc2c1 (centres unmarked) [Example 12, maleate]
101

# return recorded inhibition at 1 µM for input Clc1cccc(N2CCC3CNCC3CC2)c1Cl.O=C(O)/C=C\C(=O)O (centres unmarked) [Example 37, maleate]
80

# return recorded inhibition at 1 µM for input Clc1ccc(N2CC3CCNCCC3C2)cc1Cl (centres unmarked) [Example 42, maleate]
103

====

# assay-target: hSERT (5-HTT) in HEK293-hSERT cells (Homo sapiens)
# Construct: expressed in transfected cells; host or cells: HEK293
# method-notes: 5-HTT reuptake activity assay (fluorescence neurotransmitter transporter uptake kit)
# Format: cell-based
# applied-conditions: serotonin reuptake inhibition
Where a name gives a salt, the structure may show the parent alone.
endpoint: IC50

Consider the molecule Fc1cc(N2CC3CNCC3C2)c2ccsc2c1 (stereo not drawn) [Example 69, dihydrochloride] tested on hSERT (5-HTT) in HEK293-hSERT cells (Homo sapiens); state its IC50.
< 200 nM

Consider the molecule c1ccc2c(N3CC4CNCC4C3)csc2c1 (stereo not drawn) [Example 23, maleate] tested on hSERT (5-HTT) in HEK293-hSERT cells (Homo sapiens); state its IC50.
< 200 nM

Consider the molecule Cl.c1ccc2sc(C3CC4CNCC4C3)cc2c1 (stereo not drawn) [Example 50, hydrochloride] tested on hSERT (5-HTT) in HEK293-hSERT cells (Homo sapiens); state its IC50.
< 200 nM

Consider the molecule Br.CN1CC2CN(c3cccc4sccc34)CC2C1 (stereo not drawn) [Example 13, hydrobromide] tested on hSERT (5-HTT) in HEK293-hSERT cells (Homo sapiens); state its IC50.
< 50 nM

Consider the molecule Clc1cccc(N2CCC3CNCC3CC2)c1Cl.O=C(O)/C=C\C(=O)O (stereo not drawn) [Example 37, maleate] tested on hSERT (5-HTT) in HEK293-hSERT cells (Homo sapiens); state its IC50.
< 10 nM

Consider the molecule CN1CC2CN(c3ccc(C(F)(F)F)cc3)CC2C1.O=C(O)C(=O)O (stereo not drawn) [Example 81, oxalate] tested on hSERT (5-HTT) in HEK293-hSERT cells (Homo sapiens); state its IC50.
< 50 nM

====

# assay-target: hSERT (5-HTT) in HEK293-hSERT cells (Homo sapiens, UniProt P31645)
# Sequence (P31645 whole entry): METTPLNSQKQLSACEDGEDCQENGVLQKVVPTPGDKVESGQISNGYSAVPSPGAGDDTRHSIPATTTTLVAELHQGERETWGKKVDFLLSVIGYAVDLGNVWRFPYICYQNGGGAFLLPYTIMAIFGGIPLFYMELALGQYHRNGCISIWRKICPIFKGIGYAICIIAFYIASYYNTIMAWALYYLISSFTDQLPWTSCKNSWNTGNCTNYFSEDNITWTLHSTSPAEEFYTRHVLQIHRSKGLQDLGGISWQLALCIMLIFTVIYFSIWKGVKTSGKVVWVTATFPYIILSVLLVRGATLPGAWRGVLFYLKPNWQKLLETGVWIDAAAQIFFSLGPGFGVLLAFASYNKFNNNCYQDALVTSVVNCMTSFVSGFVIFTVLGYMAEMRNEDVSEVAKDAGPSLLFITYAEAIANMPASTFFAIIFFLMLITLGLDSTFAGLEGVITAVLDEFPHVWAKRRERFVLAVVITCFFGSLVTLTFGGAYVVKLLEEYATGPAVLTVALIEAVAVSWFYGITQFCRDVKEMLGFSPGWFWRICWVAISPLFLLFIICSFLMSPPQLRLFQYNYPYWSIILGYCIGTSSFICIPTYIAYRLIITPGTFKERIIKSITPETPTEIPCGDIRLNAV
# method-notes: 5-HTT reuptake activity assay (fluorescence neurotransmitter transporter uptake kit)
# applied-conditions: serotonin reuptake inhibition
Counter-ions that a name gives are not always drawn.
endpoint: IC50

# return recorded IC50 for input CN1CC2CN(c3ccc4sccc4c3)CC2C1.Cl (stereo not shown) [Example 15, hydrochloride]
< 10 nM

# return recorded IC50 for input O=C(O)/C=C\C(=O)O.c1ccc2cc(N3CCC4CNCC4CC3)ccc2c1 (stereo not shown) [Example 39, maleate]
< 10 nM

# return recorded IC50 for input Fc1cc(N2CC3CNCC3C2)cc2sccc12 (stereo not shown) [Example 68, dihydrochloride]
< 200 nM

# return recorded IC50 for input CN1CC2CN(c3cccc4c3CCC(=O)N4)CC2C1 (stereo not shown) [Example 93, dihydrochloride]
< 200 nM

====

# assay-target: hSERT (5-HTT) in HEK293-hSERT cells (Homo sapiens)
# method-notes: 5-HTT reuptake activity assay (fluorescence neurotransmitter transporter uptake kit)
# applied-conditions: serotonin reuptake inhibition
pIC50: −log10 of the molar value. Counter-ions that a name gives are not always drawn.
I'd appreciate it if you could supply pIC50 values for the items below.

# return recorded pIC50 for input CN1CC2CN(c3cccc(Cl)c3Cl)CC2C1.O=C(O)C(=O)O (stereo not drawn) [Example 28, oxalate]
> 6.70

# return recorded pIC50 for input c1cc2cc(N3CCC4CNCC43)ccc2s1 (stereo not drawn) [Example 64, maleate]
> 7.30

# return recorded pIC50 for input CN1CC2CN(c3cc4ccccc4cc3F)CC2C1 (stereo not drawn) [Example 76, dihydrochloride]
> 7.30

# return recorded pIC50 for input O=C(O)/C=C\C(=O)O.c1cc(N2CCC3CNCC3CC2)c2ccsc2c1 (stereo not drawn) [Example 38, maleate]
> 8.00

# return recorded pIC50 for input Fc1c(N2CC3CNCC3C2)ccc2ccccc12.O=C(O)/C=C\C(=O)O (stereo not drawn) [Example 31, maleate]
> 8.00

# return recorded pIC50 for input CN1CC2C=C(c3ccc4ccccc4c3)CC2C1 (stereo not drawn)
> 7.30

# return recorded pIC50 for input CN1CC2C=C(c3cc4ccccc4s3)CC2C1 (stereo not drawn) [Example 61, hydrochloride]
> 7.30

# return recorded pIC50 for input Cl.c1ccc2cc(C3CC4CNCC4C3)ccc2c1 (stereo not drawn) [Example 55, hydrochloride]
> 8.00

# return recorded pIC50 for input CN1CC2CN(c3ccc4ccccc4c3F)CC2C1.O=C(O)/C=C\C(=O)O (stereo not drawn) [Example 32, maleate]
> 8.00

====

# assay-target: hSERT (5-HTT) in HEK293-hSERT cells (Homo sapiens)
# method-notes: 5-HTT reuptake activity assay (fluorescence neurotransmitter transporter uptake kit)
# applied-conditions: serotonin reuptake inhibition
Counter-ions that a name gives are not always drawn.
endpoint: IC50

# return recorded IC50 for input Clc1cccc(N2CC3CNCC3C2)c1Cl (centres unmarked) [Example 27, maleate]
< 0.05 µM

# return recorded IC50 for input c1ccc2cc(N3CC4CCNCCC4C3)ccc2c1 (centres unmarked) [Example 6, maleate]
< 0.2 µM

# return recorded IC50 for input Clc1ccc(N2CCC3CNCC3CC2)cc1Cl (centres unmarked) [Example 35]
< 0.01 µM

# return recorded IC50 for input C1=C(c2cccc3ccsc23)CC2CNCC12 (centres unmarked) [Example 48, hydrochloride]
< 0.05 µM

# return recorded IC50 for input Clc1ccc(N2CC3CCNCCC3C2)cc1Cl (centres unmarked) [Example 42, maleate]
< 0.01 µM
